Consider the following binders; for each one, report its Neutralizing activity (%) at 250 µg/ml.
- testedTarget: Influenza virus A/Panama/2007/1999 (H3N2) (Influenza A virus A/Panama/2007/1999 (H3N2))
- experimentNotes: cell-based or functional assay
Dear colleague, please return just the value in %, with no unit written.

Input line: Request the reported Neutralizing activity (%) at 250 µg/ml associated with Group 2 representative clone F082-220, Fab-PP-type antibody (Fab, V domains shown) VH: QVQLVQSGAEVKKPGSSVKVSCKASGGIFRSNAVSWVRQAPGQGLEWMGGIIAIFGTPKYAQKFQGRVTITADESTSTVYMELSGLRYEDTAVYYCARGPNYYESYFDYWGQGTLVTVSS VL: DIVMTQSPPSLSASVGDRVTITCRASQGISNYLAWYQQKPGKAPKLLIFGASTLHSGVSSRFSGSGSGPDFTLTISSLQPEDAATYYCQKYHSAPLTFGGGTKVEMK
Output line: 34.2

Input line: For Group 80 representative clone F083-373, Fab-PP-type antibody (Fab, V domains shown) VH: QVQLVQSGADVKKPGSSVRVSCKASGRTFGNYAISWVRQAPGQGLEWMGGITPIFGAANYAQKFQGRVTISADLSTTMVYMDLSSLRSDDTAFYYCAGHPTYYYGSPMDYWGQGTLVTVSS VL: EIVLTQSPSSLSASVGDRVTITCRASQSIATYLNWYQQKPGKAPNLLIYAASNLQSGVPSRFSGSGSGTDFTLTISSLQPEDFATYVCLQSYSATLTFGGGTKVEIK then?
Output line: -21.2

Input line: Now the binder Group 1 representative clone F080-227, Fab-PP-type antibody (Fab, V domains shown) VH: QVQLQESGAEVKKPGSSVKVSCKASGGIFRRNAISWVRQAPGQGLEWMGGIIAIFGTANYAQKFQGRVTITADESTSTVYMELSSLRPEDTAVYYCARGPNYYENFFDYWGQGTLVTVSS VL: DIVMTQSPSSLSASVGDRLDLTCRASQDIANSLAWYKQRPGKAPELLVFGASRLEGGVPSRFSGTRAGTDFTLTISSLQPEDLGTYFCQQYFSFPRTFGQGTTLDLR
Output line: -0.7

Input line: And the next one, Group 3 representative clone F081-281, Fab-PP-type antibody (Fab, V domains shown) VH: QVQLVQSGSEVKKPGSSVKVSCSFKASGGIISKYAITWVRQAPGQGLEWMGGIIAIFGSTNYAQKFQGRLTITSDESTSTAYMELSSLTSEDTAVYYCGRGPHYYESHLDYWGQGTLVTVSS VL: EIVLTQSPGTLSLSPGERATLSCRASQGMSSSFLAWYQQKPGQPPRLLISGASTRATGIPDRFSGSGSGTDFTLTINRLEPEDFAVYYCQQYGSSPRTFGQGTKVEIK ?
Output line: -8.9
